- tested_system: acyl-CoA:cholesterol acyltransferase (ACAT)
- method: in vitro ACAT inhibition test (formation of radio-labeled cholesterol oleate from radio-labeled oleic acid in rabbit intestinal microsomes)
- run_parameters: tissue preparation containing rabbit intestinal microsomes; acylation of cholesterol by oleic acid; read-out: IC₅₀
pIC50: −log10 of the molar value.
quantity_measured: pIC50

Some solved cases for reference:
CCC(CC)(CNC(=O)Nc1c(C(C)C)cccc1C(C)C)c1ccccc1
7.77
CC(C)c1cccc(C(C)C)c1NC(=O)NCc1cccc2ccccc12
7.47
CC(C)c1cccc(C(C)C)c1NC(=O)NCC(C)c1ccccc1 (centres unmarked)
7.46

1 = CC(C)c1cccc(C(C)C)c1NC(=O)NCCc1cccc2ccccc12
2 = CC(C)c1cccc(C(C)C)c1NC(=O)N[C@@H](C)c1cccc2ccccc12
Please indicate which has the smaller reported pIC50: 1 , or 2 . // return label of chosen record
2
